Test system: UACC-257 melanoma
Test: NCI-60 one-dose screen, 48 h
Conditions: 10 µM unless noted
Method: Cells are grown in 96 well plates and exposed to the test compound for 48 hours. Compounds are tested at a single concentration, which is 10^-5 M for most compounds. The reported endpoint is percent growth (GI% or GIPRCNT), where numbers from 0 - 100% represent growth inhibition, and numbers from -100% - 0 represent cell death. For example, a value of 40 represents 60% growth inhibition. A value of 0 means no net growth occurred over the course of the experiment. […]
This is part of a sample that, as a whole, favours compounds with a hit. Of some 83,000 tested, about 20% had one in any assay. The source made the active and inactive calls. Rule for the calls: active = growth percent below 10; inactive = the rest.
Outcomes: true (1) for active, false (0) for inactive

>>> class("CCC(=O)C1C(=O)c2ccccc2C1=O")
"false (0)"
>>> class("O=C(OCC1CCCO1)c1ccc([N+](=O)[O-])cc1 (centres undefined)")
"false (0)"
>>> class("OCCc1ccc(Cl)cc1")
"false (0)"
>>> class("ON1CCCC1")
"false (0)"
>>> class("COc1ccc(-c2csc(NC(=O)Nc3nc(-c4ccc(OC)cc4)cs3)n2)cc1")
"false (0)"
>>> class("CC(=O)CSc1ncnc2nc[nH]c12")
"false (0)"
>>> class("CS(=O)(=O)c1ccc(/C=C\\C(=O)O)cc1")
"false (0)"
>>> class("O=[N+]([O-])c1c(O)c(CNCCCO)cc(CNCCCO)c1O")
"false (0)"
>>> class("S=CN1CCCCC1")
"false (0)"
>>> class("CC(=O)Nc1ncc(S(=O)(=O)c2ccc([N+](=O)[O-])cc2)s1")
"false (0)"
>>> class("COc1cc(C(=O)O)c(O)c(C(C)(C)C)c1")
"false (0)"
>>> class("Cc1c(Cl)cccc1NC(=S)NC(=O)c1ccccc1")
"false (0)"
>>> class("COC(CCCl)c1ccc(Cl)cc1 (centres undefined)")
"false (0)"
>>> class("O=C(CCCl)OCCOc1ccccc1")
"false (0)"
>>> class("CN(CCCN(C)CCC1CCCCC1)CCC1CCCCC1")
"true (1)"
>>> class("CCOC(=O)C(COS(C)(=O)=O)(COS(C)(=O)=O)C(=O)OCC")
"false (0)"
>>> class("CC(=O)NC(O)C(Cl)Cl (centres undefined)")
"false (0)"
>>> class("O=C(NC1CCCCC1)c1ccc(Cl)cc1")
"false (0)"
>>> class("Cc1ccnc(Nc2nc3ccccc3[nH]2)n1")
"false (0)"
>>> class("c1ccc2c(NCCCN3CCN(CCCNc4c5ccccc5nc5ccccc45)CC3)c3ccccc3nc2c1")
"true (1)"
>>> class("O=C(OC1CCCC1)c1ccccc1Cl")
"false (0)"
>>> class("N#C/C(=C\\c1ccc2c(c1)OCO2)c1ccccc1")
"false (0)"
>>> class("O=S(=O)(OCCOS(=O)(=O)c1ccccc1)c1ccccc1")
"false (0)"
>>> class("O=C(CC(CC(=O)c1ccccc1)c1ccccn1)c1ccccc1")
"false (0)"
>>> class("OCC1CCC(O)C(CO)N1 (centres undefined)")
"false (0)"
>>> class("C=CCNC(=S)N/C=C(/C(=O)c1ccccc1)c1ccccc1")
"false (0)"
>>> class("O=C(NCc1ccccc1)/C(=C/c1ccccc1)NC(=O)c1ccccc1")
"false (0)"
>>> class("CCOC(=O)c1cc(C)[nH]c(=O)c1C#N")
"false (0)"
>>> class("Nc1ncnc2c1ncn2C1OC(CO)C2OC21 (centres undefined)")
"false (0)"
>>> class("CCN(CC)CCCC(C)NC(=S)N/N=C(\\C)c1ccccn1 (centres undefined)")
"false (0)"
>>> class("CC(C)(CC(=O)O)CC(=O)O")
"false (0)"
>>> class("CC(c1ccccc1)N(C)C (centres undefined)")
"false (0)"
>>> class("O=c1cc(Cl)nc2ccccn12")
"false (0)"
>>> class("O=c1cc(C(F)(F)F)[nH]c(=S)[nH]1")
"false (0)"
>>> class("CC(=O)OC(C)c1cccc(C#N)c1 (centres undefined)")
"false (0)"
>>> class("CC(C)(N)CO[C@H]1C[C@H]2CC[C@@]1(C)C2(C)C")
"false (0)"
>>> class("C=C(C)[C@@H]1CC[C@]2(CO)CC[C@]3(C)[C@H](CC[C@@H]4[C@@]5(C)CC[C@H](O)C(C)(C)[C@@H]5CC[C@]43C)[C@@H]12")
"true (1)"
>>> class("CCCCc1ccc2nc(NC(=O)OC)[nH]c2c1")
"false (0)"
>>> class("O=[N+]([O-])c1ccc(-c2nc(N(CCO)CCO)c3ccccc3n2)o1")
"true (1)"
>>> class("Cc1ccc(C2CCCCC2)cc1Br")
"false (0)"
>>> class("C=C1C(=O)C2CCC1C2 (centres undefined)")
"false (0)"
>>> class("O=C(O)c1cc(I)ccc1O")
"false (0)"
>>> class("CCOC(=O)c1ccc(C(C)(C)C)cc1")
"false (0)"
>>> class("COc1ccc(C2CC(c3ccccc3)=Nc3ccccc3S2)cc1 (centres undefined)")
"false (0)"
>>> class("Cc1cc(Cc2ccccc2)c(O)c(Cc2ccccc2)c1")
"false (0)"
>>> class("OCCNc1ccccc1")
"false (0)"
>>> class("CC(C)N(C(=O)c1ccccc1)C(C)C")
"false (0)"
>>> class("Cc1ccc(NC(=O)c2ccccc2Cl)cc1")
"false (0)"
>>> class("Oc1cccnc1CN1CCCC1")
"false (0)"

Values from PubChem BioAssay (NCI)
